Compiled record: Ki values for Beta-2 adrenergic receptor (Homo sapiens, UniProt P07550) across several sources.
value.type: Ki (µM)

The examples below pair each entry with its known result.
COc1cc(CC2NCCc3cc(O)c(O)cc32)cc([N+](=O)[O-])c1OC (centres undefined) :: 0.0468
CCCCN1CCC(COC(=O)c2cc(Cl)c(N)c3c2OCCO3)CC1 :: 1

[A] CC(C)(C)NCC(O)c1cc(Br)no1 (centres undefined)
[B] CN(C)C(=O)COc1ccc2c(c1)C[C@@H](NC[C@H](O)c1ccc(O)c(CCO)c1)CC2
Query :: Name the one with the greater Ki value, either A or B as given. Lab log: write the label of the selected item as the result.
Result :: A
(A: 1.29 µM, B: 0.0257 µM)
